# study target: KRAS G12D (Homo sapiens (Human), UniProt P01116+P62937, G12D)
# Sequence (P01116 other isoform, or with tags, fused parts or gaps G12D): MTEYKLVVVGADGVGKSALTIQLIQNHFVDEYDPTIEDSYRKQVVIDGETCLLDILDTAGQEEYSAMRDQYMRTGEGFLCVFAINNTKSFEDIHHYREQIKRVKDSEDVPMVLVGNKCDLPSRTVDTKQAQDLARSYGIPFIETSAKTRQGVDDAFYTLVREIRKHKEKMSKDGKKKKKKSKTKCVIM
# Sequence (P62937 whole entry): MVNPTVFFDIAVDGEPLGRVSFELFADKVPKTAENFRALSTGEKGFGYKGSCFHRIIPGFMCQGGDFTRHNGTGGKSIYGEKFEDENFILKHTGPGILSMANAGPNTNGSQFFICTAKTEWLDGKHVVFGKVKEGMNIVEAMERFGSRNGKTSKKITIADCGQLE
# protocol description: Ras-Raf disruption/FRET/MOA assay, KRAS G12D
# Type: biochemical
pIC50: −log10 of the molar value.
I'd appreciate it if you could supply pIC50 values for the items below.

Q. Identify pIC50 associated with the compound `CCn1c(-c2cnccc2COC)c2c3cc(ccc31)-c1cc(O)cc(c1)C[C@H](NC(=O)[C@H](C(C)C)N(C)C(=O)CN(C)C(=O)[C@H]1N[C@H]1C1CC1)C(=O)N1CCC[C@H](N1)C(=O)OCC(C)(C)C2`
A. 6.00 to 7.00

Q. Identify pIC50 associated with the compound `CCn1c(-c2cnccc2COC)c2c3cc(ccc31)-c1cc(O)cc(c1)C[C@H](NC(=O)[C@H](C(C)C)N(C)C(=O)CN(C)C(=O)[C@@H]1N[C@@H]1C1CC1)C(=O)N1CCC[C@H](N1)C(=O)OCC(C)(C)C2`
A. 7.00 to 8.00

Q. Identify pIC50 associated with the compound `CCn1c(-c2cccnc2[C@H](C)OC)c2c3cc(ccc31)-c1cc(O)cc(c1)C[C@H](NC(=O)[C@H](C(C)C)N(C)C(=O)[C@]13C[C@H]1CCN3C(=O)[C@H]1CN1)C(=O)N1CCC[C@H](N1)C(=O)OCC(C)(C)C2`
A. 6.00 to 7.00

// below: pIC50 requested for another compound
Q. Identify pIC50 associated with the compound `CCn1c(-c2cnccc2COC)c2c3cc(ccc31)-c1cc(O)cc(c1)C[C@H](NC(=O)[C@H](C(C)C)N(C)C(=O)CN(C)C(=O)[C@H]1N[C@@H]1c1ccc(OC)cc1)C(=O)N1CCC[C@H](N1)C(=O)OCC(C)(C)C2`
A. 6.00 to 7.00
